# experimental target: UniProt A0A024AXB9
# Sequence (A0A024AXB9 whole entry): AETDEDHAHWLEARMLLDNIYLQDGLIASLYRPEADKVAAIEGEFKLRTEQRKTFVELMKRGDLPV
# procedure summary: Functional biochemical assay to identify treatments for viral infectious disease that targets Zika NS2B-NS3 protease. Utilizing a direct enzyme activity measurement method, reading the fluorescence intensity is used to characterize the relative potency of inhibitors as IC50.
# Design: species or system PRVABC59
pIC50: −log10 of the molar value.
Give pIC50 for every item shown.

Reference set (3 entries):
Give its pIC50 value. Item: CS(=O)(=O)c1cc(CN)cc([C@@H]2C[C@H]2c2cc(Cl)cc(NC(=O)OCc3ccccc3)c2)c1 4.36

Bench note: what pIC50 did CC(C)NC(=O)[C@H](Nc1cccc(-c2nn[nH]n2)c1)c1cc(Cl)cc(NC(=O)OCc2ccccc2)c1 show? 4.22

Looking for the measured pIC50 of O=C(Nc1cc([C@H]2CCOC2)ccn1)c1ccc2scnc2c1 , can you help? < 4.60

Lab note: each molecule below needs its pIC50 filled in.
1. N#Cc1cc(NC(=O)OCc2ccccc2)cc(C(=O)Nc2cccc(CN)c2)c1
2. Cc1c(C(=O)Nc2cccc(C3CCOCC3)c2)cc(C2CC2)n1C
3. CNC(=O)C[C@H](Nc1cccc(F)n1)c1cc(Cl)cc(Br)c1

1. 4.81
2. < 4.60
3. < 4.00
